// values below are reported GI50
System: MDA-MB-231
Assay: NCI tumour cell line growth inhibition, 48 h
Active and inactive are the calls of the source. Cut-off read from the data, not from the text of the source: active = GI50 up to about 1.1 µM and inactive = higher.
endpoint-name: GI50

{"compound": "COc1ccc(NC(=O)CC(=O)NN)cc1", "system-under-test": "MDA-MB-231", "measured-result": "> 100 µM (inactive)"}
{"compound": "O=C(O)[C@H]1CCCN1CP(=O)(O)CN1CCC[C@@H]1C(=O)O", "system-under-test": "MDA-MB-231", "measured-result": "> 100 µM (inactive)"}
{"compound": "Cc1nc(Nc2nc3ccccc3[nH]2)[nH]c(=O)c1CCO", "system-under-test": "MDA-MB-231", "measured-result": "27.4 µM (inactive)"}
{"compound": "CCCN(CCCC(NC(C)=O)C(=O)NCc1ccccc1)C(=O)N(CCCl)N=O (stereo unspecified)", "system-under-test": "MDA-MB-231", "measured-result": "> 100 µM (inactive)"}
{"compound": "Cc1ccc(Sc2ccccc2C23OC(C)(C4C(=O)N(c5ccccc5)C(=O)C42)N(C)C3=O)cc1 (stereo unspecified)", "system-under-test": "MDA-MB-231", "measured-result": "> 100 µM (inactive)"}
{"compound": "Cc1ccc(-c2n[nH]c(=O)n2N2C(=O)C=CC2=O)cc1", "system-under-test": "MDA-MB-231", "measured-result": "> 100 µM (inactive)"}
{"compound": "O=c1onc2n1-c1cc(Cl)ccc1C(=S)N1CSCC21 (stereo unspecified)", "system-under-test": "MDA-MB-231", "measured-result": "> 100 µM (inactive)"}
{"compound": "O=C1CC(O)c2c(Cl)sc(Cl)c21 (stereo unspecified)", "system-under-test": "MDA-MB-231", "measured-result": "27.7 µM (inactive)"}
{"compound": "CCC1(O)C=CC(=O)C=C1", "system-under-test": "MDA-MB-231", "measured-result": "17.2 µM (inactive)"}
{"compound": "COc1ccc(C2=C(Cl)c3cc(OC)c(OC)cc3C2Cl)cc1 (stereo unspecified)", "system-under-test": "MDA-MB-231", "measured-result": "17.7 µM (inactive)"}
{"compound": "Cc1c(N2C(=O)CS(=O)(=O)C2c2cccc(Oc3ccccc3)c2)c(=O)n(-c2ccccc2)n1C (stereo unspecified)", "system-under-test": "MDA-MB-231", "measured-result": "> 100 µM (inactive)"}
{"compound": "CCN(CC)C(=S)SC(C(=O)Nc1nnc(-c2ccc(Cl)cc2)o1)c1ccccc1 (stereo unspecified)", "system-under-test": "MDA-MB-231", "measured-result": "26 µM (inactive)"}
{"compound": "CC(=O)C(N1CCCCC1)C(O)(C(F)(F)F)C(F)(F)F (stereo unspecified)", "system-under-test": "MDA-MB-231", "measured-result": "> 100 µM (inactive)"}
{"compound": "Cc1c(C2=C(Br)C(=O)N(C)C2=O)c(=O)n(C)c(=O)n1C", "system-under-test": "MDA-MB-231", "measured-result": "25.2 µM (inactive)"}
{"compound": "N#Cc1c(-c2ccccc2)c(C#N)c(=S)n(C2OC(CO)C(O)C(O)C2O)c1O (stereo unspecified)", "system-under-test": "MDA-MB-231", "measured-result": "> 100 µM (inactive)"}
{"compound": "CCOC(=O)[C@@H]1ON2O[C@@H](OC3CCCC3(c3ccccc3)c3ccccc3)C[C@H]3OC(=O)[C@@H]1C32 (stereo partly specified)", "system-under-test": "MDA-MB-231", "measured-result": "25.2 µM (inactive)"}
{"compound": "O=C(Nc1ccn(C2CCC(CO)O2)c(=O)n1)c1ccccc1 (stereo unspecified)", "system-under-test": "MDA-MB-231", "measured-result": "> 100 µM (inactive)"}
{"compound": "CC1(C)CC2=NOS3=C2C(=NO3)C1c1ccccn1 (stereo unspecified)", "system-under-test": "MDA-MB-231", "measured-result": "> 100 µM (inactive)"}
{"compound": "c1ccc2c(c1)CCN(C1=NCCO1)C2", "system-under-test": "MDA-MB-231", "measured-result": "> 10 µM (inactive)"}
{"compound": "COC1C(O)CC(OC2C(C)OC(Oc3cc(O)c4c(O)c5c(cc4c3)C[C@@H]([C@H](OC)C(=O)[C@@H](O)[C@@H](C)O)[C@H](OC3CC(OC4CC(OC6CC(C)(O)C(O)C(C)O6)C(O)C(C)O4)C(O)C(C)O3)C5=O)CC2OC(C)=O)OC1C (stereo partly specified)", "system-under-test": "MDA-MB-231", "measured-result": "91.6 µM (inactive)"}
{"compound": "[O-][n+]1onc2c1CCC(=N\\O)/C2=N/Nc1ccccc1", "system-under-test": "MDA-MB-231", "measured-result": "> 100 µM (inactive)"}

---

Test system: A498
Experiment: NCI tumour cell line growth inhibition, 48 h
Active and inactive are the calls of the source. Cut-off read from the data, not from the text of the source: active = GI50 up to about 1.1 µM and inactive = higher.
Property: GI50; scope: individual compounds

{"compound": "N#CCCN(CCN(C(=O)Nc1ccccc1)c1ccccc1)C(=O)Nc1ccccc1", "GI50": "> 100 µM (inactive)"}
{"compound": "Cc1ccc(C)c(NC(=O)C(=O)Nn2c(S)nc3ccccc3c2=O)c1", "GI50": "> 100 µM (inactive)"}
{"compound": "Oc1c(NCn2nc(CCCCCCCCc3nn(CNc4ccc5ccccc5c4O)c(=S)o3)oc2=S)ccc2ccccc12", "GI50": "> 100 µM (inactive)"}
{"compound": "C=C1C(NC)CCC23CC24CCC2(C)C(C(C)=O)C(O)CC2(C)C4CCC13 (centres undefined)", "GI50": "> 100 µM (inactive)"}
{"compound": "O=C(Nc1nc2ncn(CCI)c2c(=O)[nH]1)c1ccccc1", "GI50": "16 µM (inactive)"}
{"compound": "CCCN(CCCC(NC(C)=O)C(=O)NCc1ccccc1)C(=O)N(CCCl)N=O (centres undefined)", "GI50": "13.3 µM (inactive)"}
{"compound": "COc1c(Cl)ccc(Cl)c1C(=O)NNC(=O)c1c(Cl)c(Cl)c(Cl)c(Cl)c1-c1nc2cc(C(=O)c3ccccc3)ccc2[nH]1", "GI50": "61.2 µM (inactive)"}
{"compound": "CC1(C)CC2=NOS3=C2C(=NO3)C1c1ccccn1 (centres undefined)", "GI50": "> 100 µM (inactive)"}
{"compound": "O=C(c1ccccc1)c1ccc(-n2c3ccccc3c3ccc4c(c32)C(=O)C=CC4=O)cc1", "GI50": "12.2 µM (inactive)"}

---

System: UO-31
Test: NCI tumour cell line growth inhibition, 48 h
Active and inactive are the calls of the source. Cut-off read from the data, not from the text of the source: active = GI50 up to about 1.1 µM and inactive = higher.

{"molecule": "CN(Cc1ccccc1)C(=O)c1ccccc1C(=O)O", "GI50": "> 100 µM (inactive)"}
{"molecule": "C/C(CN1C(=O)c2ccccc2C1=O)=N\\NS(=O)(=O)c1ccc(C)cc1", "GI50": "> 100 µM (inactive)"}
{"molecule": "CCOC(=O)C1(C/C=C\\CBr)CCCC1=O (stereo unspecified)", "GI50": "21.9 µM (inactive)"}
{"molecule": "O=C(Nc1nc2ncn(CCI)c2c(=O)[nH]1)c1ccccc1", "GI50": "> 90.4 µM (inactive)"}
{"molecule": "COc1ccc2oc3c(OC)c(OC)c(OC)cc3c(=O)c2c1", "GI50": "> 100 µM (inactive)"}
{"molecule": "CCOC(=O)C1=C(Nc2ccc(Cl)c(Cl)c2)OC/C1=N\\NS(=O)(=O)c1ccc(C)cc1", "GI50": "25.1 µM (inactive)"}

---

Measured GI50 of individual entries
System: SNB-75
Test: NCI tumour cell line growth inhibition, 48 h
Calls of active or inactive are those of the source. Cut-off read from the data, not from the text of the source: active = GI50 up to about 1.1 µM and inactive = higher. Where a SMILES comes first, the peptide text is derived from it. The star is where a group is joined. Fmoc = O=C(OCC1c2ccccc2-c2ccccc21)*; Boc = CC(C)(C)OC(=O)*

{"molecule": "CC(C)(C)OC(=O)NCCCCC(NC(=O)OCC1c2ccccc2-c2ccccc21)C(=O)N1CCCC1C(=O)NCC(N)=O (stereo not drawn) (Fmoc-Lys(Boc)-Pro-Gly-NH2; configuration not given here)", "system-under-test": "SNB-75", "GI50": "7.6 µM (inactive)"}
{"molecule": "COc1ccc(NC(=S)NNC(=O)c2cc(-c3ccccc3)nc3ccccc23)cc1", "system-under-test": "SNB-75", "GI50": "16.1 µM (inactive)"}
{"molecule": "Cc1ccc(Sc2ccccc2C23OC(C)(C4C(=O)N(c5ccccc5)C(=O)C42)N(C)C3=O)cc1 (configuration not stated)", "system-under-test": "SNB-75", "GI50": "> 100 µM (inactive)"}
{"molecule": "CSC1=NN(c2ccccc2)C(=O)C1=C(SC)SC", "system-under-test": "SNB-75", "GI50": "27.4 µM (inactive)"}
{"molecule": "CCN(CC)CCOc1ccc(CCc2cc(OC)c(OC)c(OC)c2)cc1", "system-under-test": "SNB-75", "GI50": "31.3 µM (inactive)"}
{"molecule": "N#Cc1c(-c2ccccc2)c(C#N)c(=S)n(C2OC(CO)C(O)C(O)C2O)c1O (configuration not stated)", "system-under-test": "SNB-75", "GI50": "> 100 µM (inactive)"}
{"molecule": "O=[N+]([O-])c1cc(Cl)cc2c1nc(NCCO)c1ccccc12", "system-under-test": "SNB-75", "GI50": "20.4 µM (inactive)"}
{"molecule": "Nc1nc(N)c(CCCCc2ccccc2)c(N)n1", "system-under-test": "SNB-75", "GI50": "60.7 µM (inactive)"}
{"molecule": "Cc1c(C2=C(Br)C(=O)N(C)C2=O)c(=O)n(C)c(=O)n1C", "system-under-test": "SNB-75", "GI50": "> 100 µM (inactive)"}
{"molecule": "CN(C)CS/C(N)=N\\C(O)C(Cl)(Cl)Cl (configuration not stated)", "system-under-test": "SNB-75", "GI50": "> 100 µM (inactive)"}
{"molecule": "O=C(CCCNC(=O)OCc1ccccc1)OCc1ccc2c(c1)C(=O)c1ccccc1C2=O", "system-under-test": "SNB-75", "GI50": "20 µM (inactive)"}
{"molecule": "CC(C)C(OC(=O)c1ccc(NCc2cc(O)ccc2O)cc1)C(C)C", "system-under-test": "SNB-75", "GI50": "0.746 µM (active)"}
